Assay info: yeast display, Sf9 membrane polyspecificity reagent, FACS + sequencing; frameworks hold sequencing errors

| Primary sequence | polyreactivity (PSR sort gate) |
| --- | --- |
| QVQLVESGGGLVQAGGSLRLSCAASGFILGTNAMGWYRQAPGKERELVAAISSGGGSTYYADSVMGRFTISRDNAKNTVYLQMNSQKPEDTAVYYCAADNVWGYPEDDYWGQGTQVTVSS | low polyreactivity |
| QVQLVESGGGLVQAGGSLRLSCAASGSIFGRYVMGWYRQAPGTDRELVAAISGSGTSTYYADSVKGRFTISRDNAKNTVYLQMNSLKPEDTAVYYCAARDIKSSHDYDYWGQGTQVTVSS | low polyreactivity |
